# tested target: FLT3 (FMS-like tyrosine kinase 3) (Homo sapiens, UniProt P36888, D835H)
# Construct: catalytic domain of FLT3 D835H
# assay name: in vitro kinase assay with GST-FLT3S substrate, anti-phosphotyrosine immunoblot
parameter measured: pIC50
API: returns pIC50 as number; meaning -log10 of concentration in mol/L.

## Task Respond only with pIC50 recorded for CCN(CC)CCNC(=O)c1c(C)[nH]c(/C=C2\C(=O)Nc3ccc(Cl)cc32)c1C
## Result 7.49

* * *

# tested target: FLT3 (FMS-like tyrosine kinase 3) (Homo sapiens)
parameter measured: IC50

## Task Enter IC50 (test system FLT3 (FMS-like tyrosine kinase 3) (Homo sapiens)) for CCN(CC)CCNC(=O)c1c(C)[nH]c(/C=C2\C(=O)Nc3ccc(Cl)cc32)c1C
## Result ~1.5 nM

* * *

# tested target: FLT3 (FMS-like tyrosine kinase 3) (Homo sapiens, UniProt P36888, D835Y)
# Construct: catalytic domain of FLT3 D835Y
# assay name: in vitro kinase assay with GST-FLT3S substrate, anti-phosphotyrosine immunoblot
parameter measured: pIC50
API: returns pIC50 as number; meaning -log10 of concentration in mol/L.

## Task Respond only with pIC50 recorded for CCN(CC)CCNC(=O)c1c(C)[nH]c(/C=C2\C(=O)Nc3ccc(Cl)cc32)c1C
## Result 7.80
